Would you mind telling me the reported Blackgrass plant response rating of each entry?
Test system: blackgrass (Alopecurus myosuroides)
Test: Test D pre-/postemergence plant response
Type: in vivo
Details: Postemergence, 16 g ai/ha; scale 0 to 100 (0 no effect, 100 complete control)
Answer with a number only.

Q: For FC(F)(F)c1cc(-c2c(Br)cccc2Oc2ncc(Cl)cn2)no1 , what is its reported Blackgrass plant response rating?
A: 0

Q: For Fc1ccc(Oc2ncc(Cl)cn2)c(-c2cc(C(F)F)on2)c1F , what is its reported Blackgrass plant response rating?
A: 5

Q: For Cc1cc(-c2ccccc2Oc2ncc(Cl)cn2)no1 , what is its reported Blackgrass plant response rating?
A: 0

Q: For FC(F)(F)c1cc(-c2c(I)cccc2Oc2ncc(Cl)cn2)no1 , what is its reported Blackgrass plant response rating?
A: 0

Q: For N#Cc1cccc(Oc2ncc(Cl)cn2)c1-c1cc(C(F)(F)F)on1 , what is its reported Blackgrass plant response rating?
A: 5

Q: For FC(Cl)c1cc(-c2ccccc2Oc2ncc(Cl)cn2)no1 (stereo not drawn) , what is its reported Blackgrass plant response rating?
A: 0
